settings: in ethyl acetate, 278.15 K
quantity measured: solubility (mole fraction)
The reply should be a number, written without any unit.

Given the compound O=Cc1ccc(O)cc1 , what is its reported solubility (mole fraction)?
0.0708

* * *

conditions: in ethyl acetate, 283.15 K
quantity measured: solubility (mole fraction)
Just the number, please, no unit after it.

Tell me the measured solubility (mole fraction) of O=Cc1ccc(O)cc1 , please.
0.0877

* * *

settings: in acetone, 300.65 K
quantity measured: solubility (mole fraction)
The reply should be a number, written without any unit.

Name the recorded solubility (mole fraction) for O=Cc1ccc(O)cc1 .
0.174

* * *

conditions: in acetone, 295.65 K
quantity measured: solubility (mole fraction)
Reply with the value as a number alone.

Quick check: solubility (mole fraction) of O=Cc1ccc(O)cc1 ?
0.145
